- tested_target: human DHFR (Homo sapiens, UniProt P00374)
- Construct: made in house; host or cells: E. coli M15
- Sequence (P00374 whole entry): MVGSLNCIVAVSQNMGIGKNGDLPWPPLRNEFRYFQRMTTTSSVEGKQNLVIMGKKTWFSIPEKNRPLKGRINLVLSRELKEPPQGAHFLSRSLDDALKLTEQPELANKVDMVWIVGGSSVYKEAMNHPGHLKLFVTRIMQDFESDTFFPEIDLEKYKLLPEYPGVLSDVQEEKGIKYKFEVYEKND
- assay_comment: Inhibition of human DHFR (I50-derived Ki);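 further: recombinant human DHFR expressed in E. coli and purified by methotrexate affinity chromatography, enzyme activity followed spectrophotometrically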
- Assay type: biochemical
- protocol_conditions: Human Ki (I50)(nM), human DHFR
quantity: Ki (nM)

[[record]]
compound = "NC1=NC(c2cccc(OCc3ccccc3)c2)N(c2cccc(Cl)c2)C(N)=N1 (centres unmarked)"
quantity = "Ki"
val = 46

[[record]]
compound = "CC(C)c1ccc(C2N=C(N)N=C(N)N2c2ccc(Cl)cc2)cc1 (centres unmarked)"
quantity = "Ki"
val = 10000

[[record]]
compound = "COc1ccc(C2N=C(N)N=C(N)N2c2ccc(F)cc2)cc1 (centres unmarked)"
quantity = "Ki"
val = 26900

[[record]]
compound = "COc1cc(OC)cc(C2N=C(N)N=C(N)N2c2ccc(Cl)cc2)c1 (centres unmarked)"
quantity = "Ki"
val = 25800

[[record]]
compound = "COc1cccc(C2N=C(N)N=C(N)N2c2cccc(Cl)c2)c1 (centres unmarked)"
quantity = "Ki"
val = 1270


----------
- Tested on: A16V.S108T mutant (mut) of DHFR from Plasmodium falciparum
- assay_comment: biochemical
- protocol_conditions: resistance factor
// classify: if (Ki(mut)/Ki(wt) < 8) 1 else -1

[[record]]
compound = "COc1ccc(C2N=C(N)N=C(N)N2c2ccc(Cl)cc2)cc1 (stereo not drawn)"
class = -1

[[record]]
compound = "COc1ccc(Oc2cccc(C3N=C(N)N=C(N)N3c3ccc(Cl)c(Cl)c3)c2)cc1 (stereo not drawn)"
class = 1

[[record]]
compound = "NC1=NC(c2cccc(Oc3ccccc3)c2)N(c2ccc(OCc3ccccc3)cc2)C(N)=N1 (stereo not drawn)"
class = 1

[[record]]
compound = "Cl.NC1=NCN(c2ccc(Cl)cc2)C(N)=N1"
class = -1

[[record]]
compound = "CCCCOc1ccc(C2N=C(N)N=C(N)N2OCCCOc2cc(Cl)c(Cl)cc2Cl)cc1 (stereo not drawn)"
class = 1

[[record]]
compound = "NC1=NC(c2cccc(Oc3ccccc3)c2)N(c2cccc(Cl)c2)C(N)=N1 (stereo not drawn)"
class = 1

[[record]]
compound = "NC1=NC(c2cccc(OCc3ccccc3)c2)N(c2ccc(OCc3ccccc3)cc2)C(N)=N1 (stereo not drawn)"
class = 1

[[record]]
compound = "COc1cccc(C2N=C(N)N=C(N)N2c2cccc(Cl)c2)c1 (stereo not drawn)"
class = -1


----------
- tested_target: A16V.S108T mutant (mut) of DHFR from Plasmodium falciparum (Plasmodium falciparum, UniProt A7UD81, A16V/S108T)
- Construct: The Dihydrofolate Reductase Domain of Plasmodium falciparum Thymidylate Synthase-Dihydrofolate Reductase; made in house
- Sequence (A7UD81 1-231 A16V/S108T): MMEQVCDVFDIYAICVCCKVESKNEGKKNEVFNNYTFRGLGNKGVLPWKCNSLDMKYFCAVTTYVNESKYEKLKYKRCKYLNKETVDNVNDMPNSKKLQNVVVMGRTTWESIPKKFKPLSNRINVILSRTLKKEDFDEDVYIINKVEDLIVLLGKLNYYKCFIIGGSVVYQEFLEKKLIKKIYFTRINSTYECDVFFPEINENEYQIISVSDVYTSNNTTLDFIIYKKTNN
- assay_comment: biochemical
// classify: if (Ki < 30 nM) y else n

[[record]]
compound = "COc1ccc(C2N=C(N)N=C(N)N2c2cccc(Cl)c2)cc1 (stereo not shown)"
class = "y"

[[record]]
compound = "NC1=NC(c2ccc(Br)cc2)N(c2cccc(Cl)c2)C(N)=N1 (stereo not shown)"
class = "y"

[[record]]
compound = "NC1=NC(c2cccc(O)c2)N(c2cccc(Cl)c2)C(N)=N1 (stereo not shown) [(Ib) R2=3-hydroxyphenyl]"
class = "y"

[[record]]
compound = "NC1=NCN(c2ccc(Cl)c(Cl)c2)C(N)=N1"
class = "n"

[[record]]
compound = "COc1cc(OC)cc(C2N=C(N)N=C(N)N2c2ccc(Cl)cc2)c1 (stereo not shown)"
class = "n"

[[record]]
compound = "COc1ccc(C2N=C(N)N=C(N)N2c2ccc(Cl)cc2)cc1 (stereo not shown)"
class = "n"

[[record]]
compound = "NC1=NC(c2ccc(Oc3ccccc3)cc2)N(c2cccc(Cl)c2)C(N)=N1 (stereo not shown)"
class = "y"

[[record]]
compound = "CC(C)(C)c1ccc(Oc2cccc(C3N=C(N)N=C(N)N3c3cccc(Cl)c3)c2)cc1 (stereo not shown)"
class = "y"

[[record]]
compound = "NC1=NC(c2ccc(O)cc2)N(c2cccc(Cl)c2)C(N)=N1 (stereo not shown) [(Ib) R2=4-hydroxyphenyl]"
class = "n"

[[record]]
compound = "COc1ccc(Oc2cccc(C3N=C(N)N=C(N)N3c3cccc(Cl)c3)c2)cc1 (stereo not shown)"
class = "y"

[[record]]
compound = "NC1=NC(c2cccc(Oc3ccc(Cl)c(Cl)c3)c2)N(c2cccc(Cl)c2)C(N)=N1 (stereo not shown)"
class = "y"

[[record]]
compound = "Cl.NC1=NCN(c2ccccc2)C(N)=N1 [R=H, X=H, hydrochloride]"
class = "n"

[[record]]
compound = "NC1=NC(c2cccc(OCc3ccccc3)c2)N(c2ccc(Cl)cc2)C(N)=N1 (stereo not shown)"
class = "y"

[[record]]
compound = "COc1cccc(C2N=C(N)N=C(N)N2c2cccc(Cl)c2)c1 (stereo not shown)"
class = "n"

[[record]]
compound = "NC1=NC(c2cccc(O)c2)N(c2ccc(Cl)cc2)C(N)=N1 (stereo not shown) [(Ia) R2=m-hydroxyphenyl]"
class = "n"

